# test: AUC (0 to infinity) in healthy human at 500 […], po administered as single dose measured after 72 hrs by HPLC method
# Type: ADME, organism-based
# Design: time infinity, route oral
# run-conditions: plasma
recorded-endpoint: AUC(0-inf) (ng·h/mL)
The reply should be a number in ng·h/mL, with the unit left off.

QUERY: Given C[C@@H]([C@H](N)C(=O)N[C@H](C(=O)O)[C@H]1O[C@@H](n2ccc(=O)[nH]c2=O)[C@H](O)[C@@H]1O)[C@H](O)c1ccc(O)cn1 [NIKKOMYCIN] , state its recorded AUC(0-inf).
RESULT: 24600

###

# test: Relative bioavailability based on AUC (0 to infinity) in healthy human at 2000 […], po administered as single dose by HPLC method
# Type: ADME, organism-based
# run-conditions: in vivo
recorded-endpoint: bioavailability (%)
A number alone suffices; assume %.

QUERY: For C[C@@H]([C@H](N)C(=O)N[C@H](C(=O)O)[C@H]1O[C@@H](n2ccc(=O)[nH]c2=O)[C@H](O)[C@@H]1O)[C@H](O)c1ccc(O)cn1 [NIKKOMYCIN] , what is its reported bioavailability?
RESULT: 41
